molecular target: T1, oligopeptide TYPSGHLDM (SEQ ID NO: 96); test: ELISA on coated peptide
T1 construct: Synthetic peptide, part of Loop C of AQP3
T1 peptide: TYPSGHLDM
Observation type: binding signal (plate reader)
Just the number, please, no unit attached.

Assign binding signal (plate reader) to the following record: SC-B6 (IgG) (antibody, V domains shown, also called anti AQP3 antibody SC-B6) VH: QSVKESGGRLVTPGAPLTLTCTVSGFSLNNYAMTWVRQAPGKGLEWIGIINNDGISSTWYASWVKGRFIISKTSTTVDLKMTSLTTEDTATYFCARGGTSGYDIWGPGTLVTVSL VL: AQGPTQTPSPVSAAVGGTVTINCQSSPSVYKNYLSWYQQKPGQPPKLLIYGASTLASGVPSRFKGSRSGTQFTLTISDVQCDDAATYYCAGGYIGSRDIFSFGGGTEVVVK 4

Continuing:
Report measured binding signal (plate reader); entry is SC-F8 (IgG) (antibody, V domains shown, also called anti AQP3 antibody SC-F8) VH: QTVKESGGRLVTPGGSLTLTCTVSRFSLSNYAMTWVRQAPGKGLEWIGIINNDGISSTWYASWVKGRFTISKTSTTMDLKMTSLTTEDTATYFCARGGTSGYDIWGPGTLVTVSL VL: AQVLTQTPSPVSAAVGGTVTINCQSSPSVYKNYLSWYQQKPGQPPKLLIYGASTLASGVPSRFKGSGSGTQFTLTISDVQCDDAATYYCAGGYRGSSDIFAFGGGTEVVVK 3.92

Tell me its binding signal (plate reader) given Antibody J (antibody, mouse IgG2a, kappa, V domains shown, also called anti AQP3 antibody J) VH: QVHLQQSGTELVKPGASVKLSCEASGYTFTSYWMHWVKQRPGQGLEWIGNINPSNGGTNYNEKFKSKATLTVDKSSSTAYMQLSSLTSEDSAVYYCARGGIYYGNYDYYAMDYWGQGTSVTVSS VL: DIVMTQAAPSVPVTPGESVSISCRSSKSLLHSNGNTYLYWFLQRPGQSPQLLIYRVSNLASGVPDRFSGSGSGTAFTLRISRVEAEDVGVYYCMQHLEYPFTFGGGTKLEIKR as the entry. 0.26
